tested-target: STAT5A (Homo sapiens)
Construct: made in house; host or cells: HEK293 (transient transfection), unpurified extract
Sequence (P42229 whole entry): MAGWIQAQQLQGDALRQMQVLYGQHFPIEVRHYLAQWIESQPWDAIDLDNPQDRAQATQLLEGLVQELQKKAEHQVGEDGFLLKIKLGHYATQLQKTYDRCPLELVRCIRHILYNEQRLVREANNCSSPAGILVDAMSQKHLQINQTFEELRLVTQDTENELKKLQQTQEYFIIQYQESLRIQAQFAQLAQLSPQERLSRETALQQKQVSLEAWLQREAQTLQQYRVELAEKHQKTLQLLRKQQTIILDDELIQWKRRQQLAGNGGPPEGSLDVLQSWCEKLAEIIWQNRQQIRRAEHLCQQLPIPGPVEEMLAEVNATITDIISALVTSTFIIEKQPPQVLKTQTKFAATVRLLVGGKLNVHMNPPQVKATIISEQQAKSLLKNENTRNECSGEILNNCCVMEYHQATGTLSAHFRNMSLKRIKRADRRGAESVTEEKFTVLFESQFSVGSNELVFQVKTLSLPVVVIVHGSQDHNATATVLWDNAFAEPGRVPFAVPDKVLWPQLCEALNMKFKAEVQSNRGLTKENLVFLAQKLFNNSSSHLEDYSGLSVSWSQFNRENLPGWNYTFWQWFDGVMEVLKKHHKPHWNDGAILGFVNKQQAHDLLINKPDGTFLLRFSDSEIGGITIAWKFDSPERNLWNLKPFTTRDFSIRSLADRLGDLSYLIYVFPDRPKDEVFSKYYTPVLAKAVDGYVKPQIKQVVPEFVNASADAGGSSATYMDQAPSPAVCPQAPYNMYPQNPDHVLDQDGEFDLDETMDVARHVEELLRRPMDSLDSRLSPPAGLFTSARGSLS
method-description: biochemical
Type: binding
run-conditions: primary screen, 10 μM; read-out: percent of DMSO vehicle control
Measured remaining activity at 10 µM, listed per entry.
Lab book: enter the figure in %, no units written.

# count of solved cases: 2
| molecule | tested-target | remaining activity at 10 µM (%) |
| --- | --- | --- |
| CC(C)(C)[C@H](NC(=O)/C=C/c1ccc(OP(=O)(O)O)cc1)C(=O)N1CCC[C@H]1C(=O)N(c1ccccc1)c1ccc(I)cc1 [STAT6-IN-3] | STAT5A (Homo sapiens) | 0 |
| O=C(CCl)Nc1cccc(CNC(=O)[C@H](Cc2ccc(OP(=O)(O)O)cc2)NC(=O)Cc2ccc(F)cc2)c1 [MN551] | STAT5A (Homo sapiens) | 39 |

What does the data say about its remaining activity at 10 µM? Entry: C/C(=C\C(=O)N[C@H](C(=O)N1CCC[C@H]1C(=O)N(c1ccccc1)c1ccc(I)cc1)C(C)(C)C)c1ccc(OP(=O)(O)O)cc1 [STAT6-IN-1]
0

What does the data say about its remaining activity at 10 µM? Entry: O=C(COc1ccc2cc(C(=O)Nc3ccccc3)ccc2c1)NCc1ccc(OP(=O)(O)O)c(OP(=O)(O)O)c1 [Stafib-1]
22

* * *

Measured remaining activity at 10 µM, listed per entry.
tested-target: NCK1 (Homo sapiens, UniProt P16333)
Construct: the DNA-tagged SH2 domain concentrations used in this study were <0.1 nM; made in house; host or cells: HEK293 (transient transfection, unpurified extract)
method-description: biochemical
Format: binding
run-conditions: read-out: percent of DMSO vehicle control
Non-standard residues stand in square brackets, D forms with d. Residues, ends and D or L forms follow the SMILES beside them. *: point of attachment. pY = N[C@@H](Cc1ccc(OP(=O)(O)O)cc1)C(=O)O; Caffeoyl = O=C(/C=C/c1ccc(O)c(O)c1)*
Lab book: enter the figure in %, no units written.

# count of solved cases: 3
| compound | parameter-measured | result-value |
| --- | --- | --- |
| NC(=O)CC[C@H](NC(=O)[C@@H]1CC[C@@H]2CCN(C(=O)CCCCCC#Cc3cccc4c3CN(C3CCC(=O)NC3=O)C4=O)C[C@H](NC(=O)c3cc4cc(C(F)(F)P(=O)(O)O)ccc4[nH]3)C(=O)N21)C(=O)NC(c1ccccc1)c1ccccc1 (stereo partly shown) | remaining activity at 10 µM | 106 |
| CC(=O)N1CC[C@H]2CC[C@@H](C(=O)N[C@@H](CCC(N)=O)C(=O)NC(c3ccccc3)c3ccccc3)N2C(=O)[C@@H](NC(=O)c2cc3cc(C(F)(F)P(=O)(O)O)ccc3[nH]2)C1 | remaining activity at 10 µM | 124 |
| CC(=O)N[C@@H](Cc1ccc(CP(=O)(O)O)cc1)C(=O)NC1(C(=O)N[C@@H](CC(N)=O)C(=O)NCCCc2c(O)ccc3ccccc23)CCCCC1 | remaining activity at 10 µM | 104 |

With those in mind, consider the next compound.
What does the data say about its remaining activity at 10 µM? Entry: CC[C@H](C)[C@H](NC(=O)[C@H](CCC(=O)O)NC(=O)[C@H](CCC(=O)O)NC(=O)[C@H](Cc1ccc(OP(=O)(O)O)cc1)NC(=O)/C=C/c1ccc(O)c(O)c1)C(=O)N[C@@H](CCC(=O)O)C(=O)O [Caffeic acid-pYEEIE] (Caffeoyl-[pY]EEIE-OH)
0.8
